# credit: patent US20240239788A1

- TARGET DESC: KRAS protein containing G12D mutation (Homo sapiens (Human), UniProt P01116, G12D)
- Sequence (P01116 other isoform, or with tags, fused parts or gaps G12D (already in the parent)): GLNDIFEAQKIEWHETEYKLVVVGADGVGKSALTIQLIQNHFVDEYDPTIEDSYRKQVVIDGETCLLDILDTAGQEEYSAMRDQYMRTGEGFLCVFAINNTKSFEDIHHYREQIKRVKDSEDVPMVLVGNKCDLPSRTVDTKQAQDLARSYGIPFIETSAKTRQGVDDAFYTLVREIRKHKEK
- ASSAY NOTES: SOS-catalyzed nucleotide exchange assay (GNE), TR-FRET
- Type: biochemical
- CONDITIONS USED: biotinylated KRAS G12D, SOS and GTP, 60-minute incubation
VALUE KIND: log10 IC50 (log10 of the value in nM)
Please keep in mind that the values are log10 of IC50 expressed in nM.

Prompt: Quick one: log10 IC50 for C[C@@]12CC[C@H](CN(c3nc(OC[C@@]45CCCN4C[C@H](F)C5)nc4c(F)c(-c5cc(O)cc6ccc(F)c(Cl)c56)c(F)cc34)C1)N2 (single isomer, unassigned) [Ex. 176b] ?
Completion: 2.04

Prompt: // repeat for CN(C)CC1(COc2nc(N3C[C@H]4CC[C@@H](C3)N4)c3cc(Cl)c(-c4c(C(F)(F)F)ccc5[nH]ncc45)c(F)c3n2)CC1 and report
Completion: 3.20

Prompt: // repeat for Cc1cc2[nH]ncc2c(-c2c(F)cc3c(N4C[C@H]5CC[C@@](C)(C4)N5)nc(OCC4(CN5CC[C@@H](F)C5)CC4)nc3c2F)c1C(F)(F)F (single isomer, unassigned) [Ex 80b] and report
Completion: 3.12

Prompt: // repeat for CN(C)CC1(COc2nc(N3C[C@H]4C[C@@H](O)[C@@H](C3)N4)c3cc(Cl)c(-c4cc(O)cc5ccccc45)c(F)c3n2)CC1 (single isomer, unassigned) [Example 18a] and report
Completion: 0.95

Prompt: // repeat for C#Cc1cccc2cc3[nH]ncc3c(-c3c(F)cc4c(N5C[C@H]6CC[C@@](C)(C5)N6)nc(OC[C@@]56CCCN5C[C@H](F)C6)nc4c3F)c12 and report
Completion: 0.64
